Tested on: p-ERK of PC-9 cells
Experiment Summary: p-ERK HTRF assay in PC-9 cells
Assay type: cell-based
Condition Info: Homo sapiens, PC-9, 1 h, PC-9 lung cancer cells, 1 hour treatment, read-out: IC50, inhibitory activity on p-ERK of PC-9 cells
pIC50: −log10 of the molar value.
pIC50 overview

[
  {
    "Compound": "C[C@@H](Nc1ccnc2cnc(N3CCC(C(=O)O)CC3)cc12)c1cccc(C(F)F)c1F",
    "Subject Of Test": "p-ERK of PC-9 cells",
    "pIC50": "< 6.00"
  },
  {
    "Compound": "C[C@@H](Nc1ccnc2cnc(N3CCN(C)C(=O)C3)cc12)c1cccc(C(F)F)c1F",
    "Subject Of Test": "p-ERK of PC-9 cells",
    "pIC50": "≥ 6.52"
  },
  {
    "Compound": "CC(=O)N1CCN(c2cc3c(N[C@H](C)c4cccc(C(F)F)c4F)ccnc3cn2)CC1",
    "Subject Of Test": "p-ERK of PC-9 cells",
    "pIC50": "≥ 6.52"
  },
  {
    "Compound": "C[C@@H](Nc1ccnc2cnc(N3CC[C@H](N)C3)cc12)c1cccc(C(F)F)c1F",
    "Subject Of Test": "p-ERK of PC-9 cells",
    "pIC50": "6.00 to 6.52"
  },
  {
    "Compound": "CNC(=O)C1CCN(c2cc3c(N[C@H](C)c4cccc(C(F)F)c4F)ccnc3cn2)CC1",
    "Subject Of Test": "p-ERK of PC-9 cells",
    "pIC50": "≥ 6.52"
  },
  {
    "Compound": "C[C@@H](Nc1ccnc2cnc(C3(O)CCN(C(=O)N4CC[C@@H](O)C4)CC3)cc12)c1cccc(C(F)F)c1F",
    "Subject Of Test": "p-ERK of PC-9 cells",
    "pIC50": "6.00 to 6.52"
  },
  {
    "Compound": "C[C@@H](Nc1ccnc2cnc(N3CCn4nccc4C3)cc12)c1cccc(C(F)F)c1F",
    "Subject Of Test": "p-ERK of PC-9 cells",
    "pIC50": "6.00 to 6.52"
  },
  {
    "Compound": "C[C@@H](Nc1ccnc2cnc(C3(O)CCN(C(=O)C(C)(C)O)CC3)cc12)c1cccc(C(F)F)c1F",
    "Subject Of Test": "p-ERK of PC-9 cells",
    "pIC50": "≥ 6.52"
  },
  {
    "Compound": "C[C@@H](Nc1ccnc2cnc(C3(O)CCN(C(=O)CC#N)CC3)cc12)c1cccc(C(F)F)c1F",
    "Subject Of Test": "p-ERK of PC-9 cells",
    "pIC50": "≥ 6.52"
  },
  {
    "Compound": "C[C@@H](Nc1ccnc2cnc(C3(O)CCN(C(=O)C4CCOCC4)CC3)cc12)c1cccc(C(F)F)c1F",
    "Subject Of Test": "p-ERK of PC-9 cells",
    "pIC50": "6.00 to 6.52"
  },
  {
    "Compound": "C[C@@H](Nc1ccnc2cnc(N3CCN(C(=O)C4CC4)CC3)cc12)c1cccc(C(F)F)c1F",
    "Subject Of Test": "p-ERK of PC-9 cells",
    "pIC50": "≥ 6.52"
  },
  {
    "Compound": "Cc1nnc(N2CCC(O)(c3cc4c(N[C@H](C)c5cccc(C(F)F)c5F)ccnc4cn3)CC2)o1",
    "Subject Of Test": "p-ERK of PC-9 cells",
    "pIC50": "6.00 to 6.52"
  },
  {
    "Compound": "CC(=O)N[C@@H]1CCN(c2cc3c(N[C@H](C)c4cccc(C(F)F)c4F)ccnc3cn2)C1",
    "Subject Of Test": "p-ERK of PC-9 cells",
    "pIC50": "≥ 6.52"
  },
  {
    "Compound": "C[C@@H](Nc1ccnc2cnc(N3CCC(O)(CN)CC3)cc12)c1cccc(C(F)F)c1F",
    "Subject Of Test": "p-ERK of PC-9 cells",
    "pIC50": "6.00 to 6.52"
  },
  {
    "Compound": "C[C@@H](Nc1ccnc2cnc(C3(O)CCN(C(=O)c4ccncc4)CC3)cc12)c1cccc(C(F)F)c1F",
    "Subject Of Test": "p-ERK of PC-9 cells",
    "pIC50": "≥ 6.52"
  },
  {
    "Compound": "CC(=O)N1CCC(c2cc3c(N[C@H](C)c4cccc(C(F)F)c4F)ccnc3cn2)CC1",
    "Subject Of Test": "p-ERK of PC-9 cells",
    "pIC50": "≥ 6.52"
  },
  {
    "Compound": "C[C@@H](Nc1ccnc2cnc(C3(O)CCN(C(=O)CN4CC[C@H](O)C4)CC3)cc12)c1cccc(C(F)F)c1F",
    "Subject Of Test": "p-ERK of PC-9 cells",
    "pIC50": "< 6.00"
  },
  {
    "Compound": "C[C@@H](Nc1ccnc2cnc(C3(O)CCN(C(=O)Cc4ccncc4)CC3)cc12)c1cccc(C(F)F)c1F",
    "Subject Of Test": "p-ERK of PC-9 cells",
    "pIC50": "≥ 6.52"
  },
  {
    "Compound": "C[C@@H](O)C(=O)N1CCC(O)(c2cc3c(N[C@H](C)c4cccc(C(F)F)c4F)ccnc3cn2)CC1",
    "Subject Of Test": "p-ERK of PC-9 cells",
    "pIC50": "≥ 6.52"
  },
  {
    "Compound": "C[C@@H](Nc1ccnc2cnc(C3(O)CCN(C(=O)c4cccnc4)CC3)cc12)c1cccc(C(F)F)c1F",
    "Subject Of Test": "p-ERK of PC-9 cells",
    "pIC50": "6.00 to 6.52"
  },
  {
    "Compound": "C[C@@H](Nc1ccnc2cnc(C3(O)CCN(C(=O)CO)CC3)cc12)c1cccc(C(F)F)c1F",
    "Subject Of Test": "p-ERK of PC-9 cells",
    "pIC50": "≥ 6.52"
  },
  {
    "Compound": "CC(=O)N1CCN(c2cc3c(N[C@H](C)c4cccc(C(F)(F)F)c4)ccnc3cn2)CC1",
    "Subject Of Test": "p-ERK of PC-9 cells",
    "pIC50": "≥ 6.52"
  },
  {
    "Compound": "CC(=O)N1C2CCC1CC(c1cc3c(N[C@H](C)c4cccc(C(F)F)c4F)ccnc3c(C)n1)C2 (some centres unmarked)",
    "Subject Of Test": "p-ERK of PC-9 cells",
    "pIC50": "6.00 to 6.52"
  },
  {
    "Compound": "CC(=O)N1CCC(O)(c2cc3c(N[C@H](C)c4cccc(C(F)F)c4F)ccnc3cn2)CC1",
    "Subject Of Test": "p-ERK of PC-9 cells",
    "pIC50": "≥ 6.52"
  },
  {
    "Compound": "C[C@@H](Nc1ccnc2cnc(N3CCN(C(=O)C4COC4)CC3)cc12)c1cccc(C(F)F)c1F",
    "Subject Of Test": "p-ERK of PC-9 cells",
    "pIC50": "≥ 6.52"
  },
  {
    "Compound": "C[C@@H](Nc1ccnc2cnc(-c3ccc(=O)n(C)c3)cc12)c1cccc(C(F)F)c1F",
    "Subject Of Test": "p-ERK of PC-9 cells",
    "pIC50": "≥ 6.52"
  },
  {
    "Compound": "C[C@@H](Nc1ccnc2cnc(N3CCn4ccnc4C3)cc12)c1cccc(C(F)F)c1F",
    "Subject Of Test": "p-ERK of PC-9 cells",
    "pIC50": "6.00 to 6.52"
  },
  {
    "Compound": "C[C@@H](Nc1ccnc2cnc(N3CCCCS3(=O)=O)cc12)c1cccc(C(F)F)c1F",
    "Subject Of Test": "p-ERK of PC-9 cells",
    "pIC50": "≥ 6.52"
  },
  {
    "Compound": "CC(=O)N1CCN(c2cc3c(N[C@H](C)c4cccc(C(F)F)c4F)ccnc3c(C)n2)[C@@H](CO)C1",
    "Subject Of Test": "p-ERK of PC-9 cells",
    "pIC50": "≥ 6.52"
  }
]
